test: Stability data of Afatinib dimaleate crystalline Form H3 on storage (PXRD, impurity, water content); format: physicochemical; details: 25 ± 2° C./RH 60 ± 5%; 3rd Month
measure: Water Content (%)
Give the value in % but do not write % after it.

For this molecule ( CN(C)C/C=C/C(=O)Nc1cc2c(Nc3ccc(F)c(Cl)c3)ncnc2cc1O[C@H]1CCOC1 [Afatinib dimaleate crystalline Form H3] ), measured Water Content is 1.56

====

assay: Stability data of Afatinib dimaleate crystalline Form H3 on storage (PXRD, impurity, water content); format: physicochemical; details: 5 ± 3° C.; 2nd Month
measure: Water Content (%)
Could you give me the number in %? Just the number is fine.

Sample CN(C)C/C=C/C(=O)Nc1cc2c(Nc3ccc(F)c(Cl)c3)ncnc2cc1O[C@H]1CCOC1 [Afatinib dimaleate crystalline Form H3] ; Water Content observed: 1.4

====

assay: Stability data of Afatinib dimaleate crystalline Form H3 on storage (PXRD, impurity, water content); assay type: physicochemical; details: 5 ± 3° C.; Initial
measure: Water Content (%)
Form entry: value (%) — number only.

// field: Water Content; key: CN(C)C/C=C/C(=O)Nc1cc2c(Nc3ccc(F)c(Cl)c3)ncnc2cc1O[C@H]1CCOC1 [Afatinib dimaleate crystalline Form H3] ; value = 1

====

assay: Stability data of Afatinib dimaleate crystalline Form H3 on storage (PXRD, impurity, water content); type: physicochemical; conditions: 25 ± 2° C./RH 60 ± 5%; 2nd Month
measure: Water Content (%)
The reply should be a number in %, with the unit left off.

The molecule identified as CN(C)C/C=C/C(=O)Nc1cc2c(Nc3ccc(F)c(Cl)c3)ncnc2cc1O[C@H]1CCOC1 [Afatinib dimaleate crystalline Form H3] registered its Water Content at 1.35

====

test: Stability data of Afatinib dimaleate crystalline Form H3 on storage (PXRD, impurity, water content); type: physicochemical; conditions: 25 ± 2° C./RH 60 ± 5%; 1st Month
measure: Water Content
Answer format: value, then unit.

Reported Water Content ( CN(C)C/C=C/C(=O)Nc1cc2c(Nc3ccc(F)c(Cl)c3)ncnc2cc1O[C@H]1CCOC1 [Afatinib dimaleate crystalline Form H3] ) = 1.18%
